Would you kindly list koff for each of these binders?
Target: T1, recombinant extracellular domain (ECD) of human TF, amino acid 1-219 of the mature chain, C-terminal His6-tag (human, UniProt P13726 33-251)
T1 construct: expressed in a mammalian system; used for ELISA and Biacore; biotinylated by NHS-ester for the Fab ELISA; also called His6-TF-ECD1-219; HumanTF1-219
Assay: Biacore

Please supply the value of reported koff for the item M1588 (antibody, V domains shown, complete MAb; FR4 is its own entry; also called H179/L3) VH: EVQLVQSGAEVKKPGESLRISCKGSGYTFGPFWIEWVRQMPGKGLEWMGDILPGSGYTNYSPSFQGHVTISADKSISTAYLQWSSLKASDTAMYYCARSGYYGNSGFAYWGQGTLVTVSS VL: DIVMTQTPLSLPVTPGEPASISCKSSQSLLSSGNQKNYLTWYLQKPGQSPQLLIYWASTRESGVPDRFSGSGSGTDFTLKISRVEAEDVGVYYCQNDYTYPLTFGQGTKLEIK
6e-05 s⁻¹

For the binder M68 (antibody, V domains shown, complete MAb; FR4 is its own entry; also called H23/L5) VH: QVQLVQSGAEVKKPGSSVKVSCKASGYTFITYWIEWVRQAPGQGLEWMGDILPGSGSTNYAQKFQGRVTITADESTSTAYMELSSLRSEDTAVYYCARSGYYGNSGFAYWGQGTLVTVSS VL: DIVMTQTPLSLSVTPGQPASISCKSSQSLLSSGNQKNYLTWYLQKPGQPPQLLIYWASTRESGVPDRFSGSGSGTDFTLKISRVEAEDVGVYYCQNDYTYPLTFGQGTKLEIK , give its reported koff.
0.000103 s⁻¹

Please list koff recorded for the binder M1597 (antibody, V domains shown, complete MAb; FR4 is its own entry; also called H134/L3) VH: EVQLVQSGAEVKKPGESLRISCKGSGYTFSSYWIEWVRQMPGKGLEWMGDILPGTGATHYSPSFQGHVTISADKSISTAYLQWSSLKASDTAMYYCARSGYYGNSGFAYWGQGTLVTVSS VL: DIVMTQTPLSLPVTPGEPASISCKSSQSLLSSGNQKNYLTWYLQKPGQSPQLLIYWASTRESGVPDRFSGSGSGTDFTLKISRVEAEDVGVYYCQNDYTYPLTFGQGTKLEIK
6.6e-05 s⁻¹
